Target protein (sequence): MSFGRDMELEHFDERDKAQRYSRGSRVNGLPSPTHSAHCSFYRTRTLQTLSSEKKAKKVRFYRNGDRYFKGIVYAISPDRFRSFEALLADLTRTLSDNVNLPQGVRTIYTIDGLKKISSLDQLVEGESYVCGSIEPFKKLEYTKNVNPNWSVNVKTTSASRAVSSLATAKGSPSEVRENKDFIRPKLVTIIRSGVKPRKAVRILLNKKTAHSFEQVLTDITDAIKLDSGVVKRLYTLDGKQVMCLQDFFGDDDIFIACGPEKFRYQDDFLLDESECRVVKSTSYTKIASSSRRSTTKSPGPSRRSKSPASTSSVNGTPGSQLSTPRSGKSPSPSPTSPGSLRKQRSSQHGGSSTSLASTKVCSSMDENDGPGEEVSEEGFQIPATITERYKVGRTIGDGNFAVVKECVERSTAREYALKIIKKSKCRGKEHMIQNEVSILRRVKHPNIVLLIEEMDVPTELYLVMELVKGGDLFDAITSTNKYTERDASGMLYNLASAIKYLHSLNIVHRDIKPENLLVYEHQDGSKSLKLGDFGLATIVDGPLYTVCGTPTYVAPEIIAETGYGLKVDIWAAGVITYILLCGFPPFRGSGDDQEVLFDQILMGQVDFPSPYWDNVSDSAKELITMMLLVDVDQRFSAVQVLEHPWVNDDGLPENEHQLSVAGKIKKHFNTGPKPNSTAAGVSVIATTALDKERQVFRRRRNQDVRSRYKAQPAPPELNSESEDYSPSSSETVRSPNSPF
readout name: pIC50
Scale for pIC50: -log10 of concentration given in mol/L; no unit attached.

Recorded pIC50 of COc1cc(C(=O)N2CCC(N3CCN(C)CC3)CC2)ccc1Nc1ncc2c(n1)N(C)c1ccccc1C(=O)N2C , please.
8.58
